Record form. Attribute: GI50. Fill in for each entry.
# System: NCI/ADR-RES
# Protocol Details: Cytotoxicity (GI50) assay, NCI/ADR-RES
# Type: cell-based, human
# Experimental Conditions: Homo sapiens, NCI/ADR-RES, read-out: Cancer cell lines GI50, NCI/ADR-RES
Give bare numbers, in nM.

Compound | GI50 / nM
C/C(=C\c1csc(CCO)n1)[C@@H]1C[C@@H]2N(CCO)[C@]2(C)CCC[C@H](C)[C@H](O)[C@@H](C)C(=O)C(C)(C)[C@@H](O)CC(=O)O1 (some centres unmarked) | 4800

Items follow; give GI50 for each.
1. C/C(=C\c1cc(C)no1)[C@@H]1C[C@@H]2N(CCO)[C@]2(C)CCC[C@H](C)[C@H](O)[C@@H](C)C(=O)C(C)(C)[C@@H](O)CC(=O)O1 (some centres unmarked)
2. C/C(=C\c1coc(C)n1)[C@@H]1C[C@@H]2N(CCO)[C@]2(C)CCC[C@H](C)[C@H](O)[C@@H](C)C(=O)C(C)(C)[C@@H](O)CC(=O)O1 (some centres unmarked)
3. CC1=CCC(C(C)=Cc2csc(C)n2)OC(=O)CC(O)C(C)(C)C(=O)C(C)C(O)C(C)CCC1 (centres unmarked) [compound 4, epothilone D, reference compound]

390
190
17

====

# Tested on: NCI/ADR-RES
# Protocol Details: Cytotoxicity (GI50) assay, NCI/ADR-RES
# Assay type: cell-based, human
# Experimental Conditions: Homo sapiens, NCI/ADR-RES, read-out: Cancer cell lines GI50, NCI/ADR-RES
Measurement Label: GI50

Compound | GI50
C/C(=C\c1csc(-c2nc(C)cs2)n1)[C@@H]1C[C@@H]2N(CCO)[C@]2(C)CCC[C@H](C)[C@H](O)[C@@H](C)C(=O)C(C)(C)[C@@H](O)CC(=O)O1 (stereo partly shown) [compound 22] | 240 nM

Items follow; give GI50 for each.
1. C/C(=C\c1csc(-c2nc(C)cs2)n1)[C@@H]1C[C@@H]2N[C@]2(C)CCC[C@H](C)[C@H](O)[C@@H](C)C(=O)C(C)(C)[C@@H](O)CC(=O)O1 [compound 32]
2. CC(=Cc1csc(C)n1)C1CC2OC2CCCC(C)C(O)C(C)C(=O)C(C)(C)C(O)CC(=O)O1 (stereo not shown) [compound 1, epothilone A]

170 nM
78 nM

Items follow; give GI50 for each.
1. C/C(=C\c1csc(C)n1)[C@@H]1C[C@@H]2N[C@@H]2CCC[C@H](C)[C@H](O)[C@@H](C)C(=O)C(C)(C)[C@@H](O)CC(=O)O1 [compound 8, 12,13-aziridinyl epothilone A, reference compound]
2. CC(=O)OCCN1[C@H]2C[C@@H](/C(C)=C/c3ccn(Cn4cccn4)n3)OC(=O)C[C@H](O)C(C)(C)C(=O)[C@H](C)[C@@H](O)[C@@H](C)CCC[C@]21C (stereo partly shown) [compound 26]
3. C/C(=C\c1cc(-c2ccc(F)cc2)on1)[C@@H]1C[C@@H]2N(CCO)[C@]2(C)CCC[C@H](C)[C@H](O)[C@@H](C)C(=O)C(C)(C)[C@@H](O)CC(=O)O1 (stereo partly shown) [compound 31]
4. C/C(=C\c1ccn(Cn2cccn2)n1)[C@@H]1C[C@@H]2N[C@]2(C)CCC[C@H](C)[C@H](O)[C@@H](C)C(=O)C(C)(C)[C@@H](O)CC(=O)O1 [compound 33]
5. C/C(=C\c1csc(C)n1)[C@@H]1C[C@@H]2O[C@]2(C)CCC[C@H](C)[C@H](O)[C@@H](C)C(=O)C(C)(C)[C@@H](O)CC(=O)O1 [compound 2, epothilone B, reference compound]
6. C/C(=C\c1cnon1)[C@@H]1C[C@@H]2N(CCO)[C@]2(C)CCC[C@H](C)[C@H](O)[C@@H](C)C(=O)C(C)(C)[C@@H](O)CC(=O)O1 (stereo partly shown) [compound 27]

["38 nM", "2700 nM", "50 nM", "> 5000 nM", "19 nM", "> 5000 nM"]

Entry under review: CSc1nc(/C=C(\C)[C@@H]2C[C@@H]3N(CCOC(C)=O)[C@]3(C)CCC[C@H](C)[C@H](OC(C)=O)[C@@H](C)C(=O)C(C)(C)[C@@H](OC(C)=O)CC(=O)O2)co1 (stereo partly shown) [compound 18] . Reported GI50?
2300 nM
